Target: ATM (Homo sapiens)
Construct: endogenous in cells; host or cells: MCF-7
Test: ATM in Cell Western assay (pKAP1, etoposide-treated MCF-7 cells)
Format: cell-based
Settings: etoposide 100 μM, 1 h, pKAP1 readout
REPORTED_METRIC: IC50 (nM)

CC(C)NCCOc1ncc(-c2cc3c4c(cnc3cc2F)N(C)C(=O)C42CCC2)cc1NS(=O)(=O)C(C)C ... 2.88

a = CC(C)NCCOc1ncc(-c2cc3c(cc2F)ncc2c3[C@]3(C[C@@H](OCc4ccccc4)C3)C(=O)N2C)cc1NS(C)(=O)=O
b = CC[C@H]1C[C@@]2(C1)C(=O)N(C)c1cnc3cc(F)c(-c4cnc(OCCNC(C)C)c(NS(C)(=O)=O)c4)cc3c12
c = CCS(=O)(=O)Nc1cc(-c2cc3c4c(cnc3cc2F)N(C)C(=O)C42CCC2)cnc1OCCNC(C)C
Output the entries ranked by IC50 from maximum down to minimum. Please write the labels in the order that was asked for.
a, b, c

* * *

Biological target: hERG (Homo sapiens)
Construct: host or cells: T-REx HEK293
Sequence (Q12809 whole entry): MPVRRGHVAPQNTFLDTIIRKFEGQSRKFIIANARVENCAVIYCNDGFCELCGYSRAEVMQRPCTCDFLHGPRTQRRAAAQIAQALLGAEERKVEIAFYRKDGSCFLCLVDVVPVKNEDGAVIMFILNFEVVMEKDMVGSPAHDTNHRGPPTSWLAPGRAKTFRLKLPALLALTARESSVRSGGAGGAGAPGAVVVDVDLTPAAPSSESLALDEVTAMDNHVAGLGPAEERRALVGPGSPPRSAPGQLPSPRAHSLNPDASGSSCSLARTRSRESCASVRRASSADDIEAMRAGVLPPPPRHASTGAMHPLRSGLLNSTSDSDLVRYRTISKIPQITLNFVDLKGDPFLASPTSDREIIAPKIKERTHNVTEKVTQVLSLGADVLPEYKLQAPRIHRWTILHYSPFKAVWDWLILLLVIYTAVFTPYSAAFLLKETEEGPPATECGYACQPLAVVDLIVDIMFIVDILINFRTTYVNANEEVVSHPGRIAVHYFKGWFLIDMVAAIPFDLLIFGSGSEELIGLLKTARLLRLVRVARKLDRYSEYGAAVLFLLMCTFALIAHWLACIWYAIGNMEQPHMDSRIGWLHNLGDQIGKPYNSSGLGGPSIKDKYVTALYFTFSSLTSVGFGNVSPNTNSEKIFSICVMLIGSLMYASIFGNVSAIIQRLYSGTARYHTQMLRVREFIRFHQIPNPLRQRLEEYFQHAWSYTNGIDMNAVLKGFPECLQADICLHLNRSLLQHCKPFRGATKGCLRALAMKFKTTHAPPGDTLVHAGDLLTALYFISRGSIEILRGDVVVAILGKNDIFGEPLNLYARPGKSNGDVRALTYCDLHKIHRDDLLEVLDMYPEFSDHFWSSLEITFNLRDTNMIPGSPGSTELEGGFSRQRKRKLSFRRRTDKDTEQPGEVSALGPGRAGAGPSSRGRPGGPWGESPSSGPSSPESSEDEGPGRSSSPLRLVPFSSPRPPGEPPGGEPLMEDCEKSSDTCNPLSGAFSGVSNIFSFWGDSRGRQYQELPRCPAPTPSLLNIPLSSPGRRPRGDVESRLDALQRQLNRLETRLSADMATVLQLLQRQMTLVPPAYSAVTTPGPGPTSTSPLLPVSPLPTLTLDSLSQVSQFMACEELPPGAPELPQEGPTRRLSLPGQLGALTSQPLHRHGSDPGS
Experiment: In-vitro hERG inhibition assay (manual patch clamp, hERG-T-REx HEK 293 cells)
Format: cell-based
Conditions: human, hERG-T-REx HEK 293 cells expressing hERG, pH 7.35, tail current
REPORTED_METRIC: IC50

I would be grateful if you could share the reported IC50 for CC(C)NCCOc1ncc(-c2cc3c4c(cnc3cc2F)N(C)C(=O)C42CCC2)cc1NS(C)(=O)=O [Compound 569] .
> 30 µM

* * *

Biological target: PI3Kα (Homo sapiens)
pIC50: −log10 of the molar value. Where a name gives a salt, the structure may show the parent alone.
REPORTED_METRIC: pIC50

Please review the entries below; each comes with its answer.
CN1C(=O)C2(CCC2)c2c1cnc1ccc(-c3cnc(N4CC(N(C)C)C4)c(NS(C)(=O)=O)c3)cc21 [Compound 574, hydrochloride] ... 9.92
CC(C)NCCOc1ncc(-c2cc3c4c(cnc3cc2F)N(C)C(=O)C42CCC2)cc1NS(C)(=O)=O [Compound 569] ... 7.80

1 = CC(C)NCCOc1ncc(-c2cc3c4c(cnc3cc2F)N(C)C(=O)C42CN(C(C)C)C2)cc1NS(C)(=O)=O [Compound 571]
2 = CC(C)NCCOc1ncc(-c2cc3c4c(cnc3cc2F)N(C)C(=O)C42CCC2)cc1NS(=O)(=O)C(C)C [Compound 568]
Could you please tell me which of these two has the higher pIC50: 1 or 2 ? Select an item and report its label.
2

* * *

Target: ATM (Homo sapiens, UniProt Q13315)
Construct: endogenous in cells; host or cells: MCF-7
Sequence (Q13315 whole entry): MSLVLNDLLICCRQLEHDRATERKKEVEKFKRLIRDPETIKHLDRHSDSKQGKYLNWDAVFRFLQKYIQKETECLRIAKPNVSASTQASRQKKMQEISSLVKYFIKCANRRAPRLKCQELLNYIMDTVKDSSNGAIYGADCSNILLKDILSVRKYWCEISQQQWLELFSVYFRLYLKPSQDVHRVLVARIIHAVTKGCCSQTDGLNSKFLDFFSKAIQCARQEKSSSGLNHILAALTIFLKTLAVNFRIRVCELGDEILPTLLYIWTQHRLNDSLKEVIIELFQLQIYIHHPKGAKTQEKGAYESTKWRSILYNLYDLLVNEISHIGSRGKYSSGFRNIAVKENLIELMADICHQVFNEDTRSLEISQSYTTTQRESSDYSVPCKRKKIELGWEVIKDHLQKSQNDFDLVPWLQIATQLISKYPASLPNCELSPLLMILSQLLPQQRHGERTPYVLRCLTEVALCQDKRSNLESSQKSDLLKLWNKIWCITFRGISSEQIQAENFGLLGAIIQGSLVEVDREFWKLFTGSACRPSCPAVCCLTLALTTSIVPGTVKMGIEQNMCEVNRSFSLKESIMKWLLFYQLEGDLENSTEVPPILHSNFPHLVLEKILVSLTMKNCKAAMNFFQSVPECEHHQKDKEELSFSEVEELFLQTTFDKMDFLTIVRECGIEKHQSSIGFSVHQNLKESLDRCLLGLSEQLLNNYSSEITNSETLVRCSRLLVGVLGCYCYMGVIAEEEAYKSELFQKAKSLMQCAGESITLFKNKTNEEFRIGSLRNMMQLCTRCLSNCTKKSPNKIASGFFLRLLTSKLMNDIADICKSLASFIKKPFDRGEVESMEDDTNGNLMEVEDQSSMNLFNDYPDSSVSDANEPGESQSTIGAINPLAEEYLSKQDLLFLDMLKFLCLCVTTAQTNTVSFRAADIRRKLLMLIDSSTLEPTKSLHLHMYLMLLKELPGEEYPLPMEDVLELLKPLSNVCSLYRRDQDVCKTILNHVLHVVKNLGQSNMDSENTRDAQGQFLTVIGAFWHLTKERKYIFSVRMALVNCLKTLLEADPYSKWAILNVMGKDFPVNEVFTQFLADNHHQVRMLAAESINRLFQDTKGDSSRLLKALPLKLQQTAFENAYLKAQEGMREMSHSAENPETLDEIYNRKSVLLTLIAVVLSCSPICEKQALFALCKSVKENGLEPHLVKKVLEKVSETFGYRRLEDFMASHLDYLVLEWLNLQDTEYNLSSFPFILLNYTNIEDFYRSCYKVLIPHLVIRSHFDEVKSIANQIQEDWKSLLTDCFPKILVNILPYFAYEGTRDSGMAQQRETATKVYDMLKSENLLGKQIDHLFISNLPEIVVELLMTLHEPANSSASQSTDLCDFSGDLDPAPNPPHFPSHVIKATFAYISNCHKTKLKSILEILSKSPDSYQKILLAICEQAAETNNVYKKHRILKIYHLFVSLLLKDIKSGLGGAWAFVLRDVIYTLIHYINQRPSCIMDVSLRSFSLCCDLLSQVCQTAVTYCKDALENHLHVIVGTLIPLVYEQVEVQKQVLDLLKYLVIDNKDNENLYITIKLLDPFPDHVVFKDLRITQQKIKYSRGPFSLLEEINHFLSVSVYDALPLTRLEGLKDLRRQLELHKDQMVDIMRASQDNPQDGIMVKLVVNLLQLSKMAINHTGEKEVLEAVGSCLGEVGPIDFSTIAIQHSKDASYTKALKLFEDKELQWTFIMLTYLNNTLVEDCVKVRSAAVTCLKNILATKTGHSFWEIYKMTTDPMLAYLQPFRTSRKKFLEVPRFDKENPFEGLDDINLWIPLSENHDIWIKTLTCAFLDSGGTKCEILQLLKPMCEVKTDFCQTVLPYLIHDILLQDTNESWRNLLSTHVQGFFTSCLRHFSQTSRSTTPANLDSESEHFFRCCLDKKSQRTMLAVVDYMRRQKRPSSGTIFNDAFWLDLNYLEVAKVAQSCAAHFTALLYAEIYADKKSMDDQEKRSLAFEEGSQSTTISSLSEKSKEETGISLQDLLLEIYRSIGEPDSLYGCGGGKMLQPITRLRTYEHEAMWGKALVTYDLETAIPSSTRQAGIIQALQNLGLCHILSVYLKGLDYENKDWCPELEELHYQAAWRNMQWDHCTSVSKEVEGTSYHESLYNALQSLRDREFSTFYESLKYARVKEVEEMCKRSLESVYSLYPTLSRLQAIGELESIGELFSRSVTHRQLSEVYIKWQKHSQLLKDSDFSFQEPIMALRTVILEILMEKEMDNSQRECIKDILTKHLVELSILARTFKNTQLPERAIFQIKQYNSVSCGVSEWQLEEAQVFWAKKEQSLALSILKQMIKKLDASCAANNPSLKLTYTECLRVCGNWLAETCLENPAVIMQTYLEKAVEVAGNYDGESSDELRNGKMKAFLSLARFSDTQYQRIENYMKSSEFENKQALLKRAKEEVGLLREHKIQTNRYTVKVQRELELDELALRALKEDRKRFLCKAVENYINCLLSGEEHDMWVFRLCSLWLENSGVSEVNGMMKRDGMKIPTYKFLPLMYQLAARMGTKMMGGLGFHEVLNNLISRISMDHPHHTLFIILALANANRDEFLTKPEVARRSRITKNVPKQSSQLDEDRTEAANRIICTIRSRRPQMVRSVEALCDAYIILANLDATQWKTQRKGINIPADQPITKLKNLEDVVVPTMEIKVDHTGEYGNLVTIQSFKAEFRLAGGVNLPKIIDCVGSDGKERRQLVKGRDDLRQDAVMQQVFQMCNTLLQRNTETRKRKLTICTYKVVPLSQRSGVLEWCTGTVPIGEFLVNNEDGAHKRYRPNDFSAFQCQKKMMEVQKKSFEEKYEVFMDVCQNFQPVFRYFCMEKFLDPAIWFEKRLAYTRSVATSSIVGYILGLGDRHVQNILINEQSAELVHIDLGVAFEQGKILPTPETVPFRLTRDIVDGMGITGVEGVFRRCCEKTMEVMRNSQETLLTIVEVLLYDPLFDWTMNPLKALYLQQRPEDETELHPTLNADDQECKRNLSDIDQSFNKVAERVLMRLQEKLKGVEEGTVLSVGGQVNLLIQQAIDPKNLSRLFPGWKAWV
Test: ATM in Cell Western assay (pKAP1, etoposide-treated MCF-7 cells)
Type: cell-based
Conditions: etoposide 100 μM, 1 h, pKAP1 readout
Where a name gives a salt, the structure may show the parent alone.
REPORTED_METRIC: IC50 (nM)

CC(C)NCCOc1ncc(-c2cc3c4c(cnc3cc2F)N(C)C(=O)C42CCC2)cc1NS(C)(=O)=O ... 2.43
CN1C(=O)C2(CCC2)c2c1cnc1ccc(-c3cnc(N4CC(N(C)C)C4)c(NS(C)(=O)=O)c3)cc21 [Compound 574, hydrochloride] ... 1.52
CC(C)NCCOc1ncc(-c2cc3c(cc2F)ncc2c3[C@]3(C[C@H](OCc4ccccc4)C3)C(=O)N2C)cc1NS(C)(=O)=O ... 1.05
CC[C@H]1C[C@]2(C1)C(=O)N(C)c1cnc3cc(F)c(-c4cnc(OCCNC(C)C)c(NS(C)(=O)=O)c4)cc3c12 ... 0.92
